Hey, just so you know, these numbers are from patent US20070213394A1.

targetSystem: human kappa opioid receptor (Homo sapiens, UniProt P41145)
Construct: expressed in transfected cells; host or cells: Chinese hamster ovary cells (CHO-hKOR), membranes
Sequence (P41145 whole entry): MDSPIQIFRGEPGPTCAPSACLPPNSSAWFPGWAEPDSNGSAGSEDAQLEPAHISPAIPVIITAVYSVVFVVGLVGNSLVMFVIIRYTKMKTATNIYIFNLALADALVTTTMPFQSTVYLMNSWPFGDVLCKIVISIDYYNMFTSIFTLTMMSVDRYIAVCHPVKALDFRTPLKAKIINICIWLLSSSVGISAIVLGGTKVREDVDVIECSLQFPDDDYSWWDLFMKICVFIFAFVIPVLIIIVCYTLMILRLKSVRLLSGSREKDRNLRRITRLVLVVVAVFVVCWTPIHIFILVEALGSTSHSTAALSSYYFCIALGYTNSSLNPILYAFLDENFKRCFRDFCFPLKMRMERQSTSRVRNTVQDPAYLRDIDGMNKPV
assaySummary: biochemical
details: 1 h, read-out: Efficacy
valueKind: Emax (%)
// return numeric value only (unit: %, not printed)

Answered cases to consult:
compound: CCCO[C@H]1C[C@@H](C(=O)OC)[C@]2(C)CC[C@H]3C(=O)O[C@H](c4ccoc4)C[C@]3(C)C2C1=O (some centres unmarked)
targetSystem: human kappa opioid receptor (Homo sapiens, UniProt P41145)
unitSpec: %
Emax: 100
--
compound: COC(=O)[C@@H]1C[C@H](OC(=O)Nc2ccccc2)C(=O)C2[C@@]1(C)CC[C@H]1C(=O)O[C@H](c3ccoc3)C[C@]21C (some centres unmarked)
targetSystem: human kappa opioid receptor (Homo sapiens, UniProt P41145)
unitSpec: %
Emax: 93

Reported Emax ( COC(=O)[C@@H]1C[C@H](O)C(=O)C2[C@@]1(C)CC[C@H]1C(=O)O[C@H](c3ccoc3)C[C@]21C (some centres unmarked) ) = 98

Reported Emax ( CNC1CC(C(=O)OC)C2(C)CCC3C(=O)OC(c4ccoc4)CC3(C)C2C1=O (centres unmarked) [Compound 208a, 2-(N-methyl)-salvinorin] ) = 82

Reported Emax ( CCOC(=O)C1CC(OC(C)=O)C(=O)C2C1(C)CCC1C(=O)OC(c3ccoc3)CC12C (centres unmarked) ) = 110

Reported Emax ( COC(=O)C1CC(NC(C)C)C(=O)C2C1(C)CCC1C(=O)OC(c3ccoc3)CC12C (centres unmarked) [Compound 210a, 2-(N-isopropyl)-salvinorin] ) = 99

Reported Emax ( CC(=O)OC1CC(C(=O)N2CCCC2C(=O)OCc2ccccc2)C2(C)CCC3C(=O)OC(c4ccoc4)CC3(C)C2C1=O (centres unmarked) ) = 100

Reported Emax ( CC(=O)OC1CC(C(=O)NC(C)C(=O)OCc2ccccc2)C2(C)CCC3C(=O)OC(c4ccoc4)CC3(C)C2C1=O (centres unmarked) ) = 95

Reported Emax ( CCN(C(C)=O)[C@@H]1C[C@@H](C(=O)OC)[C@]2(C)CC[C@H]3C(=O)O[C@H](c4ccoc4)C[C@]3(C)[C@H]2C1=O [Compound 216b, 2-epi-(N-ethylacetamide)-salvinorin] ) = 95

Reported Emax ( CCC(=O)N(CC)[C@@H]1C[C@@H](C(=O)OC)[C@]2(C)CC[C@H]3C(=O)O[C@H](c4ccoc4)C[C@]3(C)[C@H]2C1=O [Compound 217b, 2-epi-(N-ethylpropionamide)-salvinorin] ) = 96

Reported Emax ( CCC(=O)N(CC)[C@H]1C[C@@H](C(=O)OC)[C@]2(C)CC[C@H]3C(=O)O[C@H](c4ccoc4)C[C@]3(C)[C@H]2C1=O [Compound 217a, 2-(N-ethylpropionamide)-salvinorin] ) = 100

----------
targetSystem: human kappa opioid receptor (Homo sapiens, UniProt P41145)
Construct: expressed in transfected cells; host or cells: Chinese hamster ovary cells (CHO-hKOR), membranes
assaySummary: biochemical
Assay type: binding
The compounds listed here are annotated with their Ki.
// return numeric value only (unit: µM, not printed)

compound: COC(=O)C1CC(N(C)C(C)=O)C(=O)C2C1(C)CCC1C(=O)OC(c3ccoc3)CC12C (stereo not drawn) [Compound 214a, 2-(N-methylacetamide)-salvinorin]
targetSystem: human kappa opioid receptor (Homo sapiens, UniProt P41145)
Ki, µM: 0.0032

Item: COC(=O)[C@@H]1C[C@H](OC(=O)[C@H](C)NC(C)=O)C(=O)C2[C@@]1(C)CC[C@H]1C(=O)O[C@H](c3ccoc3)C[C@]21C (stereo partly drawn) | System: human kappa opioid receptor (Homo sapiens, UniProt P41145) | Ki: 0.176

Item: CNC(=O)O[C@H]1C[C@@H](C(=O)OC)[C@]2(C)CC[C@H]3C(=O)O[C@H](c4ccoc4)C[C@]3(C)C2C1=O (stereo partly drawn) [Compound 10, 2-(O—(N-methyl)formamide)-salvinorin B] | System: human kappa opioid receptor (Homo sapiens, UniProt P41145) | Ki: 0.083

Item: C=CCO[C@H]1C[C@@H](C(=O)OC)[C@]2(C)CC[C@H]3C(=O)O[C@H](c4ccoc4)C[C@]3(C)C2C1=O (stereo partly drawn) | System: human kappa opioid receptor (Homo sapiens, UniProt P41145) | Ki: 0.0601

----------
The molecules listed here are annotated with their pKi.
targetSystem: human kappa opioid receptor (Homo sapiens, UniProt P41145)
Construct: expressed in transfected cells; host or cells: Chinese hamster ovary cells (CHO-hKOR), membranes
assaySummary: biochemical
Assay type: binding
To interpret pKi, take it as minus log10 of a concentration measured in moles per litre.

Answered cases to consult:
molecule: CC(=O)O[C@H]1C[C@@H](C(=O)O)[C@]2(C)CC[C@@H]3C(=O)O[C@H](c4ccoc4)C[C@]3(C)C2C1=O (stereo partly drawn) [Compound 31, epi-demethyl Salvinorin]
targetSystem: human kappa opioid receptor (Homo sapiens, UniProt P41145)
pKi: 7.76
--
molecule: COC(=O)[C@@H]1C[C@H](OC(=O)Nc2ccccc2)C(=O)C2[C@@]1(C)CC[C@H]1C(=O)O[C@H](c3ccoc3)C[C@]21C (stereo partly drawn) [Compound 86]
targetSystem: human kappa opioid receptor (Homo sapiens, UniProt P41145)
pKi: 6.55

Reported pKi ( CCN[C@@H]1C[C@@H](C(=O)OC)[C@]2(C)CC[C@H]3C(=O)O[C@H](c4ccoc4)C[C@]3(C)C2C1=O (stereo partly drawn) [Compound 18, 2-(N-ethylamino)-salvinorin] ) = 7.54

----------
targetSystem: human kappa opioid receptor (Homo sapiens, UniProt P41145)
Construct: expressed in transfected cells; host or cells: Chinese hamster ovary cells (CHO-hKOR), membranes
assaySummary: biochemical
valueKind: pEC50
To interpret pEC50, take it as minus log10 of a concentration measured in moles per litre.

Answered cases to consult:
compound: CC(=O)OC1CC(C(=O)NCC(=O)OCc2ccccc2)C2(C)CCC3C(=O)OC(c4ccoc4)CC3(C)C2C1=O (stereo not drawn)
valueKind: pEC50
numericValue: 6.64
--
compound: COC(=O)[C@@H]1C[C@@H](NC(C)C)C(=O)C2[C@@]1(C)CC[C@H]1C(=O)O[C@H](c3ccoc3)C[C@]21C (stereo partly drawn) [Compound 75, 2-epi-(N-isopropyl)-salvinorin]
valueKind: pEC50
numericValue: 8.14

Now consider the entry below.
Item: COC(=O)C1CC(NC(C)=O)C(=O)C2C1(C)CCC1C(=O)OC(c3ccoc3)CC12C (stereo not drawn) [Compound 212a, 2-(acetamide)-salvinorin] | System: human kappa opioid receptor (Homo sapiens, UniProt P41145) | pEC50: 6.73

----------
The compounds listed here are annotated with their pKi.
targetSystem: human kappa opioid receptor (Homo sapiens, UniProt P41145)
Construct: expressed in transfected cells; host or cells: Chinese hamster ovary cells (CHO-hKOR), membranes
assaySummary: biochemical
Type: binding
To interpret pKi, take it as minus log10 of a concentration measured in moles per litre.

compound: CCOC(=O)C1CC(OC(C)=O)C(=O)C2C1(C)CCC1C(=O)OC(c3ccoc3)CC12C (stereo not shown) [Compound 34]
targetSystem: human kappa opioid receptor (Homo sapiens, UniProt P41145)
numericValue: 6.44

Reported pKi ( C#CCCCCOC(=O)C1CC(OC(C)=O)C(=O)C2C1(C)CCC1C(=O)OC(c3ccoc3)CC12C (stereo not shown) ) = 6.17

----------
targetSystem: human kappa opioid receptor (Homo sapiens)
Construct: expressed in transfected cells; host or cells: Chinese hamster ovary cells (CHO-hKOR), membranes
assaySummary: biochemical
Assay type: binding
The compounds listed here are annotated with their pKi.
To interpret pKi, take it as minus log10 of a concentration measured in moles per litre.

compound: CCC(=O)OC1CC(C(=O)OC)C2(C)CCC3C(=O)OC(c4ccoc4)CC3(C)C2C1=O (stereo not drawn) [Compound 203b, 2-epi-salvinorin B propionate]
numericValue: 6.19

compound: CCNC(=O)O[C@H]1C[C@@H](C(=O)OC)[C@]2(C)CC[C@H]3C(=O)O[C@H](c4ccoc4)C[C@]3(C)C2C1=O (stereo partly drawn) [Compound 20, 2-(O—(N-ethyl)formamide)-salvinorin B]
numericValue: 6.34

compound: CCCC(=O)OC1CC(C(=O)OC)C2(C)CCC3C(=O)OC(c4ccoc4)CC3(C)C2C1=O (stereo not drawn) [Compound 204b, 2-epi-salvinorin B butyrate]
numericValue: 6.18

compound: CCCC(=O)O[C@H]1C[C@@H](C(=O)OC)[C@]2(C)CC[C@H]3C(=O)O[C@H](c4ccoc4)C[C@]3(C)C2C1=O (stereo partly drawn)
numericValue: 8.31

compound: CNC1CC(C(=O)OC)C2(C)CCC3C(=O)OC(c4ccoc4)CC3(C)C2C1=O (stereo not drawn) [Compound 208a, 2-(N-methyl)-salvinorin]
numericValue: 6.48

compound: CC(=O)OC1CC(C(=O)NCC(=O)OCc2ccccc2)C2(C)CCC3C(=O)OC(c4ccoc4)CC3(C)C2C1=O (stereo not drawn)
numericValue: 6.33

Reported pKi ( COC(=O)[C@@H]1C[C@@H](NC(C)C)C(=O)C2[C@@]1(C)CC[C@H]1C(=O)O[C@H](c3ccoc3)C[C@]21C (stereo partly drawn) [Compound 75, 2-epi-(N-isopropyl)-salvinorin] ) = 8.64

Reported pKi ( COC(=O)[C@@H]1C[C@H](OC(=O)[C@H](C)N(C)C)C(=O)C2[C@@]1(C)CC[C@H]1C(=O)O[C@H](c3ccoc3)C[C@]21C (stereo partly drawn) ) = 6.71
